Attribution: the supplement of paper PMC10567573

B1: CCND1 (parent)
chain: PEAEENKQIIRKHAQTFVALCATD

variants of: B1; experiment: protein stability index of a GFP-peptide fusion (GPS, HEK-293T) (PSI 1-6); higher = more stable; conditions: c terminus: a fixed tail appended;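 also: lentivirally expressed fusions sorted by FACS into six bins by GFP to DsRed ratio, PSI derived from sequencing read proportions per bin multiplied by bin number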
Response key: 1.0 means protein stability index >= 3; 0.0 means protein stability index < 3.

Qu. Please indicate if the recorded protein stability index for PEAEENKQIIRKHAQTFVALCATR [D24R] meets or exceeds 3.
Ans. 0.0

Qu. Please indicate if the recorded protein stability index for PEAEENKQIIRMHAQTFVALCATD [K12M] meets or exceeds 3.
Ans. 0.0

Qu. Please indicate if the recorded protein stability index for PEAEENKQIIRKHAQTFVRLCATD [A19R] meets or exceeds 3.
Ans. 1.0

Qu. Please indicate if the recorded protein stability index for PEAEENKTIIRKHAQTFVALCATD [Q8T] meets or exceeds 3.
Ans. 0.0

Qu. Please indicate if the recorded protein stability index for PEAEENKQIIRKHAQTSVALCATD [F17S] meets or exceeds 3.
Ans. 1.0

Qu. Please indicate if the recorded protein stability index for PEAEENKQIIRKHAQTFVALCATE [D24E] meets or exceeds 3.
Ans. 0.0

Qu. Please indicate if the recorded protein stability index for PEAEECKQIIRKHAQTFVALCATD [N6C] meets or exceeds 3.
Ans. 0.0

Qu. Please indicate if the recorded protein stability index for PEAEENKQIIRKHAQTFVALPATD [C21P] meets or exceeds 3.
Ans. 1.0

Qu. Please indicate if the recorded protein stability index for PEAEERKQIIRKHAQTFVALCATD [N6R] meets or exceeds 3.
Ans. 0.0

Qu. Please indicate if the recorded protein stability index for PEAEENKQIIRKHEQTFVALCATD [A14E] meets or exceeds 3.
Ans. 1.0

Qu. Please indicate if the recorded protein stability index for PEAEANKQIIRKHAQTFVALCATD [E5A] meets or exceeds 3.
Ans. 0.0

Qu. Please indicate if the recorded protein stability index for PEAEENKQIIRKHAQTFVALCPTD [A22P] meets or exceeds 3.
Ans. 1.0

Qu. Please indicate if the recorded protein stability index for YEAEENKQIIRKHAQTFVALCATD [P1Y] meets or exceeds 3.
Ans. 1.0

Qu. Please indicate if the recorded protein stability index for PEAEENKQIIRKHFQTFVALCATD [A14F] meets or exceeds 3.
Ans. 0.0

Qu. Please indicate if the recorded protein stability index for PEAEENKLIIRKHAQTFVALCATD [Q8L] meets or exceeds 3.
Ans. 0.0

Qu. Please indicate if the recorded protein stability index for PDAEENKQIIRKHAQTFVALCATD [E2D] meets or exceeds 3.
Ans. 0.0

Qu. Please indicate if the recorded protein stability index for PEAEENKQIIMKHAQTFVALCATD [R11M] meets or exceeds 3.
Ans. 0.0

Qu. Please indicate if the recorded protein stability index for PQAEENKQIIRKHAQTFVALCATD [E2Q] meets or exceeds 3.
Ans. 0.0

Qu. Please indicate if the recorded protein stability index for PEAEENKQIIRKHAQTFVALCAGD [T23G] meets or exceeds 3.
Ans. 0.0

Qu. Please indicate if the recorded protein stability index for PEALENKQIIRKHAQTFVALCATD [E4L] meets or exceeds 3.
Ans. 0.0

Qu. Please indicate if the recorded protein stability index for PEMEENKQIIRKHAQTFVALCATD [A3M] meets or exceeds 3.
Ans. 0.0
